# system: μ-opioid receptor (Homo sapiens, UniProt P35372)
# Sequence (P35372 whole entry, species assumed): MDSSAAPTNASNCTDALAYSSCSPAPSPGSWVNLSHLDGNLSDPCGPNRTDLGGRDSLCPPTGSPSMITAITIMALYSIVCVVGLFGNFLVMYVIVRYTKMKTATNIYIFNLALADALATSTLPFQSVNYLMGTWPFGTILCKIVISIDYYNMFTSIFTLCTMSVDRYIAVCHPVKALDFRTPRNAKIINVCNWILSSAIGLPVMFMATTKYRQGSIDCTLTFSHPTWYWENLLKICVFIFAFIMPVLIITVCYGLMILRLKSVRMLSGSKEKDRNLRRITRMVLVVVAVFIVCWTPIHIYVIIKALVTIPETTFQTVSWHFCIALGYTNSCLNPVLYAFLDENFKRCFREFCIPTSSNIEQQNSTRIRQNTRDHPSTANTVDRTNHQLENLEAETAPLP
# assayProtocol: μ-opioid receptor [35S]GTPγS functional assay, U-2 OS cells
# Type: biochemical
# Parameters: expressed in transfected cells; host or cells: U-2 OS
# appliedConditions: U-2 OS cells; read-out: GTPγS μ EC50
pEC50: −log10 of the molar value.
Reported pEC50 is given for each of the following compounds.

{"compound": "CN1CC[C@]2(C)c3cc(O)ccc3C[C@@H]1[C@H]2Nc1ccc(CCS(N)(=O)=O)cc1", "system": "μ-opioid receptor (Homo sapiens, UniProt P35372)", "pEC50": 7.38}
{"compound": "CN(C(=O)Nc1ccc(C#N)cc1)C1C2Cc3ccc(O)cc3[C@@]1(C)CCN2Cc1ccoc1 (stereo in doubt)", "system": "μ-opioid receptor (Homo sapiens, UniProt P35372)", "pEC50": 8.15}
{"compound": "CN1CC[C@@]2(C)c3cc(O)ccc3C[C@@H]1[C@@H]2N(C)C(=O)Cc1ccccc1", "system": "μ-opioid receptor (Homo sapiens, UniProt P35372)", "pEC50": 8.88}
